Readings of pIC50 for the listed compounds
assay-target: human JAK2 (Homo sapiens (Human))
Sequence (O60674 815-1132): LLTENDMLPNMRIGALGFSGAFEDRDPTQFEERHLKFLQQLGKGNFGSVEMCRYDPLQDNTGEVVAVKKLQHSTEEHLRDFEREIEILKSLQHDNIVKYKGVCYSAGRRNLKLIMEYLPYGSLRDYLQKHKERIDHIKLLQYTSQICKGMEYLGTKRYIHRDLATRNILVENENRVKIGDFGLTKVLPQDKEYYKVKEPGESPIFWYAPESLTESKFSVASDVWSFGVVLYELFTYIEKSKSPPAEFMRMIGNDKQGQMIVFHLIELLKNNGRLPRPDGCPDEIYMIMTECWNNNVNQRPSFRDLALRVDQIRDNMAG
measurement-conditions: read-out: JAK2 IC50
pIC50: −log10 of the molar value.

>  <compound>
FC(F)COc1ccc(C(F)F)cc1-c1cccn2nc(Nc3ccc4c(c3)CCNCC4)nc12 [Example 384]

>  <pIC50>
6.69

$$$$
>  <compound>
COc1cnc(-c2cccn3nc(Nc4ccc(C5CCNCC5)cc4)nc23)cn1 [Example 285]

>  <pIC50>
7.13

$$$$
>  <compound>
CN1CCC(c2ccc(Nc3nc4c(NCc5ccccc5N(C)S(C)(=O)=O)cccn4n3)cc2)CC1 [Example 149]

>  <pIC50>
7.41

$$$$
>  <compound>
CC(C)(O)CN1CCN(c2cccc(Nc3nc4c(-c5ccc(S(C)(=O)=O)cc5)cccn4n3)c2)CC1 [Example 144]

>  <pIC50>
8.58

$$$$
>  <compound>
Cc1nn(C)c(C)c1Nc1nc2c(-c3ccc(S(C)(=O)=O)cc3)cccn2n1 [Example 210]

>  <pIC50>
5.52

$$$$
>  <compound>
Cc1cccn2nc(Nc3ccc(S(C)(=O)=O)cc3)nc12 [Example 265]

>  <pIC50>
5.58

$$$$
>  <compound>
CN1CCN(c2cccc(Nc3nc4c(NCc5ccccc5F)cccn4n3)c2)CC1 [Example 395]

>  <pIC50>
6.74

$$$$
>  <compound>
c1cc(-c2ccncc2)c2nc(Nc3ccc(N4CCOCC4)cc3)nn2c1 [Example 11]

>  <pIC50>
8.26

$$$$
>  <compound>
COc1ccc(-c2cccn3nc(Nc4ccc(N5CCOCC5)cc4)nc23)cn1 [Example 8]

>  <pIC50>
7.87

$$$$
>  <compound>
CN1CCN(c2cccc(Nc3nc4c(-c5ccc(N6CCC(N7CCN(C)CC7)CC6)cc5)cccn4n3)c2)CC1 [Example 206]

>  <pIC50>
7.35

$$$$
>  <compound>
COc1cccc(Nc2nc3cccc(-c4cccc(S(C)(=O)=O)c4)n3n2)c1 [Example 79]

>  <pIC50>
7.82

$$$$
>  <compound>
Cc1ccc(-n2cc(-c3cccn4nc(Nc5ccc(C6CCNCC6)cc5)nc34)cn2)cc1 [Example 289]

>  <pIC50>
8.39

$$$$
>  <compound>
COc1ccc(F)cc1-c1cccn2nc(Nc3ccc4c(c3)CCN(CC(=O)N(C)C)CC4)nc12 [Example 323]

>  <pIC50>
7.95

$$$$
>  <compound>
CN1CCN(c2cccc(Nc3nc4c(-c5ccc(F)cc5)cccn4n3)c2)CC1 [Example 365]

>  <pIC50>
7.54

$$$$
>  <compound>
Cc1ccc(-c2cccn3nc(Nc4ccc5c(c4)CCNCC5)nc23)c(OCC(C)C)c1 [Example 296]

>  <pIC50>
5.55

$$$$
>  <compound>
CC(C)S(=O)(=O)c1ccc(-c2cccn3nc(Nc4cccc(N5CCN(C)CC5)c4)nc23)cc1 [Example 53]

>  <pIC50>
8.89

$$$$
>  <compound>
CS(=O)(=O)c1ccc(-c2cccn3nc(Nc4cccc(N5CCOCC5)c4)nc23)cc1 [Example 27]

>  <pIC50>
9.40

$$$$

====

assay-target: human JAK2 (Homo sapiens (Human))
measurement-conditions: read-out: JAK2 IC50
Cut-off 0.01 µM on IC50: below means rule met, at or above means rule not met.

>  <compound>
FC(F)(F)c1cccc(-c2cccn3nc(Nc4ccc5c(c4)CCNCC5)nc23)c1

>  <label>
rule not met

$$$$
>  <compound>
CN(c1ccccc1CNc1cccn2nc(Nc3ccc(OCCN4CCCC4)cc3)nc12)S(C)(=O)=O

>  <label>
rule not met

$$$$
>  <compound>
CN1Cc2ccc(Nc3nc4c(NCc5cccnc5N(C)S(C)(=O)=O)cccn4n3)cc2C1

>  <label>
rule not met

$$$$
>  <compound>
COc1ccc(Nc2nc3c(N4CCN(C)CC4)cccn3n2)cc1

>  <label>
rule not met

$$$$
>  <compound>
COc1cccc(Nc2nc3c(-c4ccc(S(C)(=O)=O)cc4)cccn3n2)c1

>  <label>
rule met

$$$$
>  <compound>
CS(=O)(=O)c1cccc(-c2cccc3nc(Nc4ccc(N5CCOCC5)cc4)nn23)c1

>  <label>
rule met

$$$$
>  <compound>
COc1ncccc1-c1cccn2nc(Nc3ccc4ncccc4c3)nc12

>  <label>
rule not met

$$$$
>  <compound>
COc1cccc(CNc2cccn3nc(Nc4ccc(N5CCN(C)CC5)cc4)nc23)c1

>  <label>
rule not met

$$$$
>  <compound>
CN1CCN(c2ccc(Nc3nc4c(-c5ccc(N(C)S(C)(=O)=O)cc5)cccn4n3)cc2)CC1

>  <label>
rule met

$$$$
>  <compound>
CS(=O)(=O)CCN1CCc2ccc(Nc3nc4c(-c5cccc6c5OC(F)(F)O6)cccn4n3)cc2CC1

>  <label>
rule not met

$$$$
>  <compound>
CN1CCN(c2ccc(Nc3nc4ccc(-c5ccc(S(C)(=O)=O)cc5)cn4n3)cc2)CC1

>  <label>
rule not met

$$$$
>  <compound>
CN1CCC(c2ccc(Nc3nc4c(Nc5ccccc5CS(C)(=O)=O)cccn4n3)cc2)CC1

>  <label>
rule not met

$$$$
>  <compound>
CN1CCN(Cc2cccc(Nc3nc4c(-c5ccc(S(C)(=O)=O)cc5)cccn4n3)c2)CC1

>  <label>
rule met

$$$$
>  <compound>
CN(C)C(=O)CN1CCc2ccc(Nc3nc4c(-c5cc(S(C)(=O)=O)ccc5OCC(F)F)cccn4n3)cc2CC1

>  <label>
rule not met

$$$$
>  <compound>
CC(C)(C)OC(=O)N1CCc2ccc(Nc3nc4c(-c5cc(C(F)(F)F)ccc5F)cccn4n3)cc2CC1

>  <label>
rule not met

$$$$
>  <compound>
CN1CCN(c2cccc(Nc3nc4c(-c5ccccc5S(C)(=O)=O)cccn4n3)c2)CC1

>  <label>
rule not met

$$$$
>  <compound>
CS(=O)(=O)c1ccc(-c2cccn3nc(Nc4ccc(CN5CCOCC5)cc4)nc23)cc1

>  <label>
rule met

$$$$
>  <compound>
CS(=O)(=O)c1ccc(-c2cccn3nc(Nc4cccc(N5CCNCC5)c4)nc23)cc1

>  <label>
rule met

$$$$
>  <compound>
CN1CCN(c2cccc(Nc3nc4c(-c5cccc(CN(C)S(C)(=O)=O)c5)cccn4n3)c2)CC1

>  <label>
rule met

$$$$
>  <compound>
CCCOc1ccc(Cl)cc1-c1cccn2nc(Nc3ccc4c(c3)CCN(CC(=O)N(C)C)CC4)nc12

>  <label>
rule not met

$$$$
>  <compound>
COc1ccc(C(F)(F)F)cc1-c1cccn2nc(Nc3ccc(OCCN4CCCC4)cc3)nc12

>  <label>
rule not met

$$$$
>  <compound>
COc1ccccc1CNc1cccn2nc(Nc3cccnc3)nc12

>  <label>
rule not met

$$$$
>  <compound>
CCOc1ccc(C(F)(F)F)cc1-c1cccn2nc(Nc3ccc4c(c3)CCNCC4)nc12

>  <label>
rule not met

$$$$
>  <compound>
CN1CCN(c2ccc(Nc3nc4c(-c5ccc(C(F)(F)F)cc5)cccn4n3)cc2)CC1

>  <label>
rule met

$$$$
>  <compound>
FC(F)COc1ccc(Cl)cc1-c1cccn2nc(Nc3ccc4c(c3)CCNCC4)nc12

>  <label>
rule not met

$$$$
>  <compound>
CCOc1ccc(C(F)(F)F)cc1-c1cccn2nc(Nc3ccc4c(c3)CCN(CCS(C)(=O)=O)CC4)nc12

>  <label>
rule not met

$$$$
>  <compound>
CC(C)(C)OC(=O)N1CCN(c2ccc(Nc3nc4cccc(-c5ccc(S(C)(=O)=O)cc5)n4n3)cc2)CC1

>  <label>
rule met

$$$$
>  <compound>
CS(=O)(=O)c1ccc(-c2cccn3nc(Nc4cccc(N5CCN(CCO)CC5)c4)nc23)cc1

>  <label>
rule met

$$$$
>  <compound>
CN1CCN(c2cccc(Nc3nc4c(NCc5cccnc5)cccn4n3)c2)CC1

>  <label>
rule not met

$$$$
>  <compound>
CN(Cc1cccc(-c2cccn3nc(Nc4ccc(OCCN5CCCC5)cc4)nc23)c1)S(C)(=O)=O

>  <label>
rule met

$$$$
>  <compound>
CN(C)C(=O)CN1CCc2ccc(Nc3nc4c(-c5cc(C(F)F)ccc5OCC(F)F)cccn4n3)cc2CC1

>  <label>
rule not met

$$$$
>  <compound>
CC(C)(C)OC(=O)N1CCC(n2cc(Nc3nc4c(-c5ccc(S(C)(=O)=O)cc5)cccn4n3)cn2)CC1

>  <label>
rule met

$$$$
